Data provenance: patent US20100010002A1

biological target: Ba/F3 Bcr-Abl/F317L (Homo sapiens, UniProt P00519, F317L, cells depend on it); construct: fused on or other part: P11274 (Breakpoint cluster region protein); assay: CCK-8 assay, Ba/F3 Bcr-Abl/F317L; assay type: cell-based
Sequence (P00519 whole entry F317L, the tested form may be a part): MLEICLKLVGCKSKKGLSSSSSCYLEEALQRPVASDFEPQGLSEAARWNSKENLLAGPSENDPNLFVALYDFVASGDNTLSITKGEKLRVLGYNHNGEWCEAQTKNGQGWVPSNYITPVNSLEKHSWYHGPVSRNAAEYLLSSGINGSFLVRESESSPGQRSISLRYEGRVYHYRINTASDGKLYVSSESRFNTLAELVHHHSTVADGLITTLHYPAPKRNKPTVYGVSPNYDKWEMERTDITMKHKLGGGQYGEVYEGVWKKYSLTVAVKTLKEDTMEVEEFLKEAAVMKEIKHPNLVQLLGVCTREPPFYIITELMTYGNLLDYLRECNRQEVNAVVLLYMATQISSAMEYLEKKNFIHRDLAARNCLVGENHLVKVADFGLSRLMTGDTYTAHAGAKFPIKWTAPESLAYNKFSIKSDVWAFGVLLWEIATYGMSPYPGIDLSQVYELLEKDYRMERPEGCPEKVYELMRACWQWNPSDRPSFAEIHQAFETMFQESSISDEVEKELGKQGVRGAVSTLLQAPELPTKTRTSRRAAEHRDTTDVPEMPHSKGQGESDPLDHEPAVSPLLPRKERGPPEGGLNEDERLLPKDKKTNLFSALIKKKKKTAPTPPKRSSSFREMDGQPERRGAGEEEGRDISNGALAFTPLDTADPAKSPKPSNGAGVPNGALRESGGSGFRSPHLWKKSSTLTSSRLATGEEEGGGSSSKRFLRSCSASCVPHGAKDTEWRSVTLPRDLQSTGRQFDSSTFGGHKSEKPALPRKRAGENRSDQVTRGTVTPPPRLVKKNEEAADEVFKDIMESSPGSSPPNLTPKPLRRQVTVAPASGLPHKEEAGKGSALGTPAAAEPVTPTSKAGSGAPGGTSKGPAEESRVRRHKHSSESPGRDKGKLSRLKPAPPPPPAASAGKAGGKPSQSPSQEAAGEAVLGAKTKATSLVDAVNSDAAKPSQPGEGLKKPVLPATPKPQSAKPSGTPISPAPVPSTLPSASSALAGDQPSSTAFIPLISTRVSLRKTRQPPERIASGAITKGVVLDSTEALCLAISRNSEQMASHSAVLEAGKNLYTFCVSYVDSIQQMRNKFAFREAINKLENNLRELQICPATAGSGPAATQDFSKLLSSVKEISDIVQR
Recorded endpoint: GI50 (µM)

>>> print(df.to_string())
                              smiles_record                             system_tested  recorded_endpoint  obs_value
0  O=C(C=Cc1ccc(O)c(O)c1)N1CCN(Cc2ccccc2)CC1  Ba/F3 Bcr-Abl/F317L (Homo sapiens, UniProt P00519, F317L, cells depend on it)               GI50        1.2
1  O=C(C=Cc1ccc(O)c(O)c1)N1CCC(Cc2ccccc2)CC1  Ba/F3 Bcr-Abl/F317L (Homo sapiens, UniProt P00519, F317L, cells depend on it)               GI50        1.1
